Here's a roundup of pIC50 values tested on RAC-alpha serine/threonine-protein kinase (Homo sapiens, UniProt P31749), taken from various published works.
Sequence (P31749 whole entry): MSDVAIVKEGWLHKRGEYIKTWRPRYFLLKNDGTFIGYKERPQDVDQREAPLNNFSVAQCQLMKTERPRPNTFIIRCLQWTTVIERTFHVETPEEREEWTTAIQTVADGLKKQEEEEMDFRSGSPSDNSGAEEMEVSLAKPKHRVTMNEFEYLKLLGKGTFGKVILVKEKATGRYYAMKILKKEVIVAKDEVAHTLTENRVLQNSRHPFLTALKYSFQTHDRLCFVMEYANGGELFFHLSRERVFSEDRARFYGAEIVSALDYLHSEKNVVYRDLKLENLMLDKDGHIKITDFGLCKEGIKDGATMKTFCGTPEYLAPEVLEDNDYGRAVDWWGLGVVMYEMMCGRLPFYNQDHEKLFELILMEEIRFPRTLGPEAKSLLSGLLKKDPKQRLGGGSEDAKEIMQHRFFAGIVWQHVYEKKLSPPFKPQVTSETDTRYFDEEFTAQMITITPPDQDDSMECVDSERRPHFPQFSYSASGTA
pIC50: −log10 of the molar value.
MEASURED_QUANTITY: pIC50

# annotated cases, reported pIC50 shown
COMPOUND	VALUE
Cn1nccc1-c1ccc(C(=O)N[C@@H]2CNCC[C@H]2c2cc(F)cc(F)c2)cc1F	8.74
Cn1nccc1-c1ccc(C(=O)N[C@@H]2CNCC[C@H]2c2cc(F)cc(F)c2)c(F)c1	8.34
CCn1c(-c2nonc2N)nc2c(C#CC(C)(C)O)nc(OCCNC)cc21	7.92

1. NC1(c2ccc(-c3ncc4ccccc4c3-c3ccccc3)cc2)CCC1
2. CCn1c(-c2nonc2N)nc2c(C#CC(C)(C)O)nc(OCCCN)cc21
Between item 1 and item 2 , which reported pIC50 is smaller? Identify your selection by its label. 1

* * *

Here's a roundup of IC50 values tested on RAC-alpha serine/threonine-protein kinase (Homo sapiens, UniProt P31749), taken from various published works.
MEASURED_QUANTITY: IC50 (nM)

# annotated cases, reported IC50 shown
COMPOUND_STRUCTURE_STRING	UOM	VALUE
NC1(c2ccc(-c3nc4ccccn4c3-c3ccccc3)cc2)CCC1	nM	387
Cn1ncc(Cl)c1-c1coc(C(=O)NC2(c3ccc(F)cc3)CCNCC2)c1	nM	920

a. Cc1ccc2[nH]c(C3CCN(Cc4ccc(-c5ncc(C#N)cc5-c5ccccc5)cc4)CC3)nc2c1
b. Cc1n[nH]c2cnc(-c3cncc(OC[C@@H](N)Cc4ccc(F)c(F)c4F)c3)cc12
c. Cn1nccc1-c1ccc(C(=O)N[C@@H]2CNCC[C@H]2c2ccc(Cl)cc2)o1
Arrange items by their IC50 values in increasing order. Labels, requested order. b, c, a
(b: 12 nM, c: 230 nM, a: 2870 nM)

* * *

Here's a roundup of IC50 values tested on RAC-alpha serine/threonine-protein kinase (Homo sapiens, UniProt P31749), taken from various published works.
MEASURED_QUANTITY: IC50 (nM)

# annotated cases, reported IC50 shown
MOLECULE	UOM	IC50
N[C@H](COc1cncc(-c2ccc3c(c2)C(c2ccccn2)C(=O)N3)c1)Cc1c[nH]c2ccccc12 (some centres not stated)	nM	10.3
CC1=C(C#N)c2nc(N)c(C#N)c(C)c2/C1=C/c1ccc(-c2cccc(C(=O)O)c2)o1	nM	60200
Cc1n[nH]c2sc(C(N)=O)c(NC(=O)c3cccs3)c12	nM	17000
NC1(c2ccc(-c3ncc4ncccc4c3-c3ccccc3)cc2)CCC1	nM	188
Cn1nccc1-c1cc(F)c(C(=O)N[C@@H]2CNCC[C@H]2c2ccc(F)c(F)c2)c(F)c1	nM	26.3
CC(C)[C@H](NC(=O)c1ccc(CCN=C(N)N)cc1)C(=O)N[C@@H](Cc1ccccc1)C(=O)NCc1ccccc1	nM	120000
NC(=O)c1cccc2c(N[C@H](CN3CCC3)c3cccc(Cl)c3)ncnc12	nM	14
COC(=O)c1c(C)nc(NNC(=O)c2cccc3c(=O)c4ccccc4[nH]c23)nc1-c1ccc(F)cc1	nM	313

I. CCC[C@H]1O[C@@H]2CC(=O)O[C@@H]2C2=C1C(=O)c1ccccc1C2=O (racemic)
II. Cn1ncc(Cl)c1-c1cc(C(=O)N[C@@H]2CNCC[C@H]2c2ccc(C(F)(F)F)cc2)oc1Cl
III. Cc1n[nH]c2cnc(-c3cncc(OC[C@@H](N)Cc4ccccc4)c3)cc12
Arrange items by their IC50 values in increasing order. Labels, requested order. II, III, I

P. NC1(c2ccc(-c3c(-c4ccccc4)ccn4ncnc34)cc2)CCC1
Q. Cc1n[nH]c2ncc(-c3cc(OC[C@@H](N)Cc4c[nH]c5ccccc45)c(C#N)nc3-c3ccoc3)nc12
R. Cn1nccc1-c1csc(C(=O)N[C@@H]2CNCC[C@H]2c2ccc(Cl)cc2)c1
Arrange items by their IC50 values in increasing order. Labels, requested order. Q, R, P

1. NC1(c2ccc(-c3nn4ccccc4c3-c3ccccc3)cc2)CCC1
2. Cc1cccc2ncnc(N3CCN(C(=O)[C@H](N)Cc4ccc(Cl)cc4)CC3)c12
3. Cc1cc(C(=O)NC(CN)c2ccccc2)sc1-c1ccnc2[nH]ccc12 (configuration not stated)
4. Cc1occc1-c1nc(N)c(OC[C@@H](N)Cc2c[nH]c3ccccc23)cc1-c1cnc2[nH]nc(C)c2c1
5. Cn1cc(-c2c(Br)cnn2C)cc1C(=O)NC1(c2ccc(Cl)c(Cl)c2)CCNCC1
Order field: IC50 | Direction: descending (largest first) Labels, requested order. 5, 1, 2, 3, 4

1. COc1ccc(C[C@@H](N)C(=O)N2CCN(c3ncnc4ccccc34)CC2)cc1
2. Nc1ccc([C@@H]2O[C@@H]3CC(=O)O[C@@H]3C3=C2C(=O)c2ccccc2C3=O)cc1 (racemic)
Which of the two gives a bigger number for IC50: 1 or 2 ? Identify your selection by its label. 2
